Source: patent US4154967A

- PROCEDURE_DETAILS: physchem
- CONDITION_NOTES: ethanol-water

- COMPOUND: "CC(=O)c1ccc(S)cc1"
  pKa: 5.9
- COMPOUND: "Sc1cc(Cl)c(Cl)cc1Cl"
  pKa: 4.2
- COMPOUND: "CS(=O)(=O)c1ccc(S)cc1"
  pKa: 5.6
- COMPOUND: "O=S(=O)(O)c1cccc(S)c1"
  pKa: 5.9
- COMPOUND: "N#Cc1ccc(S)cc1"
  pKa: 6
- COMPOUND: "FC(F)(F)c1ccc(Cl)c(S)c1"
  pKa: 6
- COMPOUND: "Sc1ccc(Cl)c(Cl)c1"
  pKa: 6.2
- COMPOUND: "Fc1ccc(S)cc1"
  pKa: 7.5
- COMPOUND: "Sc1ccc(Cl)cc1"
  pKa: 7
- COMPOUND: "Sc1cccc(Cl)c1"
  pKa: 6.7
